# study-target: 5-HT2B receptor (Homo sapiens, UniProt P41595)
# Construct: expressed in transfected cells; host or cells: CHO-K1
# Sequence (P41595 whole entry): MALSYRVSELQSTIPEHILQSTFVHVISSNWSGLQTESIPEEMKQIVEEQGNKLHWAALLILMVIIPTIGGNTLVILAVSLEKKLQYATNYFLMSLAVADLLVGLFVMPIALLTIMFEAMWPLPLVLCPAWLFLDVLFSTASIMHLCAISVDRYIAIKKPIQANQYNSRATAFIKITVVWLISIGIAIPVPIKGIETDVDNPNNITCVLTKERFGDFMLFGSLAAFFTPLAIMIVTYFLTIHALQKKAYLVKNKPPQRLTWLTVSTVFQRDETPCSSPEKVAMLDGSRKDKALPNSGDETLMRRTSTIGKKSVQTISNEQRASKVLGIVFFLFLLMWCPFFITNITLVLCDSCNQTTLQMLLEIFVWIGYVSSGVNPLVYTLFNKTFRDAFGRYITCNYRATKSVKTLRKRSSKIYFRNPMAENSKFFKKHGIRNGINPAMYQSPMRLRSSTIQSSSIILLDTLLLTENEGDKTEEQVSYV
# assay-summary: Serotonin receptor binding, [3H] LSD, CHO-K1 membranes
# condition-context: read-out: 5-HT2B IC50
pIC50: −log10 of the molar value.
Some molecules, each annotated with its measured pIC50.

| input-smiles | study-target | pIC50 |
| --- | --- | --- |
| COc1ccc2[nH]cc(CCNC(=O)c3cc(=O)cc(C(=O)O)o3)c2c1 | 5-HT2B receptor (Homo sapiens, UniProt P41595) | 5.68 |
| COc1ccc2[nH]cc(CCNC(=O)c3cc(=O)cco3)c2c1 | 5-HT2B receptor (Homo sapiens, UniProt P41595) | 5.17 |
| COc1ccc2[nH]cc(CCNC(=O)c3cc(=O)c(OC)co3)c2c1 | 5-HT2B receptor (Homo sapiens, UniProt P41595) | 5.75 |
| COc1ccc2[nH]cc(CCNC(=O)c3ccc(=O)oc3)c2c1 | 5-HT2B receptor (Homo sapiens, UniProt P41595) | 5.52 |

====

Some molecules, each annotated with its measured Mean Sleep Time-Treatment (min) ± SE.
# Tested on: CD1 mice
# assay-summary: Potentiation of hexobarbital-Na sleep time in mice
# Assay type: in vivo
# condition-context: 100 mg/kg i.p. 15 min before 50 mg/kg hexobarbital-Na i.v.; loss to recovery of righting reflex

| input-smiles | Mean Sleep Time-Treatment (min) ± SE |
| --- | --- |
| COc1ccc2[nH]cc(CCNC(=O)c3cc(=O)c(O)co3)c2c1 | 17.13 |
| COc1ccc2[nH]cc(CCNC(=O)c3ccc(=O)oc3)c2c1 | 23.58 |
| COc1ccc2[nH]cc(CCOC(=O)c3cc(=O)c(O)co3)c2c1 | 15.15 |
| COc1ccc2[nH]cc(CCNC(=O)c3cc(=O)cc(C(=O)O)o3)c2c1 | 12.37 |
| COc1ccc2[nH]cc(CCNC(=O)c3cc(=O)cco3)c2c1 | 17.52 |
| COc1ccc2[nH]cc(CCNC(=O)c3cc(=O)c(OC)co3)c2c1 | 7.70 |

====

# study-target: 5-HT1B receptor (Homo sapiens, UniProt P28222)
# Construct: expressed in transfected cells; host or cells: CHO-K1
# Sequence (P28222 whole entry): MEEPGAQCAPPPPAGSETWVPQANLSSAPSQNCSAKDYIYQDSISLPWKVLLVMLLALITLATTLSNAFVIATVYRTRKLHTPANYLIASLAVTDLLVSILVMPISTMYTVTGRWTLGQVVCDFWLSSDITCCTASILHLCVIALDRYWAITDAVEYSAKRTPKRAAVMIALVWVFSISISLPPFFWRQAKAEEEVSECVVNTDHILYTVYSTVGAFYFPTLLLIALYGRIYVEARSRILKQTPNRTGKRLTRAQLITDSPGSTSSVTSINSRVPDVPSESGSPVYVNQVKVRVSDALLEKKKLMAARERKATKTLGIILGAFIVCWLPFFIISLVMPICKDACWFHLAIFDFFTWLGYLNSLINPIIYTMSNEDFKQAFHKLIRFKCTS
# assay-summary: Serotonin receptor binding, [125I] Cyanopindolol, CHO-K1 membranes
# condition-context: read-out: 5-HT1B KI

| input-smiles | Ki |
| --- | --- |
| COc1ccc2[nH]cc(CCNC(=O)c3ccc(=O)oc3)c2c1 | 1550 nM |
| COc1ccc2[nH]cc(CCNC(=O)c3cc(=O)c(OC)co3)c2c1 | 5160 nM |
| COc1ccc2[nH]cc(CCNC(=O)c3cc(=O)cco3)c2c1 | 2030 nM |

====

# study-target: 5-HT7 receptor (Homo sapiens)
# Construct: expressed in transfected cells; host or cells: CHO-K1
# Sequence (P34969 whole entry): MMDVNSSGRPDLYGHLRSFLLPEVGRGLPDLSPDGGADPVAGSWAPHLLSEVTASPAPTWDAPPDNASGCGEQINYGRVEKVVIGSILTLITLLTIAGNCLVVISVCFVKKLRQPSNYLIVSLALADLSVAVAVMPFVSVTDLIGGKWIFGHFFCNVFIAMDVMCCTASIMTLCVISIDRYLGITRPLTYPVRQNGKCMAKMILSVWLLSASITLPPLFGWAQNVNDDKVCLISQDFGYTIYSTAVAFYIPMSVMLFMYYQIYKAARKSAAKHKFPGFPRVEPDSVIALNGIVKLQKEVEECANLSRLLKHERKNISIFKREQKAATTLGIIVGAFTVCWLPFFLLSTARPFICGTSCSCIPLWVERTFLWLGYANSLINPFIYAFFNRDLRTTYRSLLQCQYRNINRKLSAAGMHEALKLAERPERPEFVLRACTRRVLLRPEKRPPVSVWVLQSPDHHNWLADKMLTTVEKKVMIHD
# assay-summary: Serotonin receptor binding, [3H] LSD, CHO-K1 membranes
pKi: −log10 of the molar value.

| input-smiles | study-target | pKi |
| --- | --- | --- |
| COc1ccc2[nH]cc(CCNC(=O)c3cc(=O)c(O)co3)c2c1 | 5-HT7 receptor (Homo sapiens) | 6.88 |

====

# study-target: 5-HT2B receptor (Homo sapiens, UniProt P41595)
# Construct: expressed in transfected cells; host or cells: CHO-K1
# assay-summary: Serotonin receptor binding, [3H] LSD, CHO-K1 membranes

| input-smiles | endpoint-unit | IC50 |
| --- | --- | --- |
| COc1ccc2[nH]cc(CCNC(=O)c3cc(=O)c(O)co3)c2c1 | µM | 2.25 |
